# test-target: Grb2 SH2 (UniProt P62993)
# Sequence (P62993 whole entry, looked up, the tested form may be a part): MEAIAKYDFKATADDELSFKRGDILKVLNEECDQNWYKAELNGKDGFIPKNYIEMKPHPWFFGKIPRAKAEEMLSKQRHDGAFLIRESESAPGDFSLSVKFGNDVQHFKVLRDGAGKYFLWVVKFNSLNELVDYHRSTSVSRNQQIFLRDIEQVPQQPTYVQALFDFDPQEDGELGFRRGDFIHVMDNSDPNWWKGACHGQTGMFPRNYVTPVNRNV
# test-protocol: SH2 binding enrichment of the phosphorylated peptide, bacterial display (enrichment ratio); higher = better substrate or ligand; peptides without Tyr show the background;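 note: peptide library displayed on the E. coli surface as eCPX fusions, selected cells deep-sequenced, score is each peptide's frequency after selection divided by its frequency in the input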
outcome-measure: SH2 binding enrichment
Answers are plain numbers.

Recorded SH2 binding enrichment of EFNLMYDGAKE [IRF6_Y97_T100A] , please.
0.965

Fill blank: measured SH2 binding enrichment of the sequence GLRFGYGGLGG [KRTAP20-2_Y15_V17G_YF] is ____.
1.05

What measured SH2 binding enrichment goes with MAYDRYAAICS [OR8H2_Y123_H120Y] ?
0.852

Please go through the list and note SH2 binding enrichment for each sequence.
1. GVSYIYTIDGS [DCX_Y105_R102S]
2. EEGENYQKGER [CHGB_Y173]
3. EKMWTYMRSAE [GRIA4_Y695]
4. LPKDLYLISQM [LARP4_Y141_S137P]
5. FADIAYSFRHG [PAH_Y166_N167S_YF]
6. GGDAVYTNGTI [RFX2_Y82_A86T]
7. TTKGAYSLSVR [YES1_Y194_I198V]
8. YGMQLYQKYMH [GRB14_Y347_N349K]

1: 0.794; 2: 0.816; 3: 0.842; 4: 1.02; 5: 0.749; 6: 0.91; 7: 0.768; 8: 0.824

Provide each entry's SH2 binding enrichment from the list below.
1. CSKRFYQLTKL [AR_Y858_R855K]
2. QYPDIYAREEV [CRX_Y67_V66I]
3. DCAAIYGNEPE [AKR1A1_Y50]
4. KDPPDYKYQPR [SOX9_Y172_H169P]

1.08
0.687
0.966
1.02

Go through the list and state SH2 binding enrichment for each entry.
1. QKPLGYFRVNL [GALE_Y104_D103G_YF]
2. MEIHAYHKLLE [LMNA_Y376_R377H]

1. 1.56
2. 0.743

Record SH2 binding enrichment for all entries; do not skip any.
1. KQELVYPNKKL [OPTN_Y356_T357P]
2. LIDTVYSSSSA [OR4C12_Y71]
3. CNPLRYPVLMS [OR2T1_Y182]
4. IDPFTYTPFGS [CYP3A4_Y432_I431T_YF]

1. 0.811
2. 0.603
3. 0.975
4. 0.746
